Listing of recorded IC50 by entry.
Target: human CSNK1A1 (Homo sapiens (Human), UniProt P48729)
Sequence (P48729 whole entry): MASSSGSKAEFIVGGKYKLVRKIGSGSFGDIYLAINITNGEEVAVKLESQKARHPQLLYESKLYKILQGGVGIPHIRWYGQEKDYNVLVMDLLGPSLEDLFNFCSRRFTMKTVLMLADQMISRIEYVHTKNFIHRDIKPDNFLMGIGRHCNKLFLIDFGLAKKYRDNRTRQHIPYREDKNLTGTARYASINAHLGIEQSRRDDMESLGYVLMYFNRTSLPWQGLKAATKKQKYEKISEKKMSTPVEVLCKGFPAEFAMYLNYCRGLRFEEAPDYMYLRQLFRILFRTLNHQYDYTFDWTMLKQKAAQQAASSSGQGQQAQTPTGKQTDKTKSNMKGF
Assay: CSNK1A1 Assay 2 (ADP-Glo, 1 μM ATP)
Format: biochemical
Conditions: substrate biotin-Ahx-KRRRAL-pS-VASLPGL, read-out: CSNK1A1 Assay 2 IC50 [mol/l] (median)
measurement-kind: IC50 (nM)

compound	measurement-kind	reported-result
CC(C(=O)Nc1cc(-c2[nH]c3c(c2Nc2ccccc2)C(=O)N(C)C(C)C3)ccn1)c1ccc(F)cc1 (single isomer, unassigned; (+)) [Example 96]	IC50	5.37
CN1CCc2[nH]c(-c3ccnc(NC(=O)Cc4cnccn4)c3)c(Nc3ccccc3)c2C1=O	IC50	2.43
CC1(C)Cc2[nH]c(-c3ccnc(NC(=O)Cc4cccnc4)c3)c(Nc3ccccc3)c2C(=O)N1	IC50	4.91
CN1CCc2[nH]c(-c3ccnc(NC(=O)Cc4ccc(F)cc4F)c3)c(Nc3ccccc3)c2C1=O	IC50	2.26
CN(C)CCC(C(=O)Nc1cc(-c2[nH]c3c(c2Nc2ccccc2)C(=O)N(C)CC3)ccn1)c1ccccc1 (stereo not shown)	IC50	14.6
CN1CCc2[nH]c(-c3ccnc(NC(=O)Cc4ccc(F)c(F)c4)c3)c(Nc3ccccc3)c2C1=O	IC50	3.03
CC(C(=O)Nc1cc(-c2[nH]c3c(c2Nc2ccccc2)C(=O)NCC3)ccn1)c1ccc(F)cc1 (single isomer, unassigned) [Example 10]	IC50	4.61

----------
# pIC50 measurements, system: human CSNK1D (Homo sapiens (Human), UniProt P48730)
# Sequence (P48730 whole entry): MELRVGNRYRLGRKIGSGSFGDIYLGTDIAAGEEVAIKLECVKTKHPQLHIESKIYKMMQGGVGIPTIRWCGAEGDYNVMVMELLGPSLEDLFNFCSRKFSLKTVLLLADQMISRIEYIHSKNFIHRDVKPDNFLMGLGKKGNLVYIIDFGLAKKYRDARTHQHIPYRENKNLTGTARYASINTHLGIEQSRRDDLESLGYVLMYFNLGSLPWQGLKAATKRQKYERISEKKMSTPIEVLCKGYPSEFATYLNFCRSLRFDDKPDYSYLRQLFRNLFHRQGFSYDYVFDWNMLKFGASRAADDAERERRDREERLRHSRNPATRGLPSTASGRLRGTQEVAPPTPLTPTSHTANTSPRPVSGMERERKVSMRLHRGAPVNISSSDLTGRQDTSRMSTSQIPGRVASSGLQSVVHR
pIC50: −log10 of the molar value.
measurement-kind: pIC50

molecule	reported-result
CC(C(=O)Nc1cc(-c2[nH]c3c(c2Nc2ccccc2)C(=O)N(C)CC3)ccn1)c1ccc(F)cc1 (stereo not drawn) [Example 4]	7.82
CC1(C)Cc2[nH]c(-c3ccnc(NC(=O)Cc4ccc(F)cc4)c3)c(Nc3cccc(F)c3)c2C(=O)N1 [Example 119]	7.97
O=C(Cc1ccc(F)cc1)Nc1cc(-c2[nH]c3c(c2Nc2cccc(F)c2Cl)C(=O)NCC3)ccn1 [Example 87]	8.22

----------
Listing of recorded IC50 by entry.
Target: human CSNK1A1 (Homo sapiens (Human), UniProt P48729)
Experiment: CSNK1A1 Assay 2 (ADP-Glo, 1 μM ATP)
Format: biochemical
Conditions: substrate biotin-Ahx-KRRRAL-pS-VASLPGL, read-out: CSNK1A1 Assay 2 IC50 [mol/l] (median)
measurement-kind: IC50 (nM)

compound	unit-of-measurement	reported-result
O=C(Cc1ccc(F)cc1)Nc1cc(-c2[nH]c3c(c2Nc2ccccc2)C(=O)N(CC2CC2)CC3)ccn1 [Example 20]	nM	9.72
CC1(C)Cc2[nH]c(-c3ccnc(NC(=O)C(CC(F)F)c4ccc(F)cc4)c3)c(Nc3cccc(F)c3)c2C(=O)N1 (single isomer, unassigned; enantiomer 1) [Example 120]	nM	9.64
CC1(C)Cc2[nH]c(-c3ccnc(NC(=O)C(CNC(=O)OC(C)(C)C)c4ccc(F)cc4)c3)c(Nc3ccccc3)c2C(=O)N1 (racemic) [Example 138]	nM	16.6

----------
Molecular target: UniProtKB P48729
Experiment: CSNK1A1 High ATP Assay (ADP-Glo, 1 mM ATP)
Format: biochemical
Conditions: read-out: CSNK1A1 high ATP assay IC50 [mol/l] (median)
pIC50: −log10 of the molar value.

compound	pIC50
CN1CCc2[nH]c(-c3ccnc(NC(=O)Cc4ccc(F)cc4)c3)c(Nc3ccccn3)c2C1=O [Example 12]	8.28
CC1(C)Cc2[nH]c(-c3ccnc(NC(=O)C(CC(F)F)c4ccc(F)cc4)c3)c(Nc3cccc(F)c3)c2C(=O)N1 (single isomer, unassigned; enantiomer 2) [Example 121]	4.99
CN1CCc2[nH]c(-c3ccnc(NC(=O)Cc4cccc(S(C)(=O)=O)c4)c3)c(Nc3ccccc3)c2C1=O [Example 69]	7.09
Cc1cc(CC(=O)Nc2cc(-c3[nH]c4c(c3Nc3ccccc3)C(=O)N(C)CC4)ccn2)ccc1F [Example 3]	7.11
CC(C(=O)Nc1cc(-c2[nH]c3c(c2Nc2ccccc2)C(=O)N(C)CC3)ccn1)c1ccc(Cl)cc1 (single isomer, unassigned; (+)) [Example 81]	7.15

Taken from patent US12227501B2.
